system name: SARS-CoV-2 M^pro (MBP-tagged main protease) (Severe acute respiratory syndrome coronavirus 2)
protocol details: biochemical
protocol conditions: 20 µM phytochemical, 0.5 µM enzyme, 37°C 30 min
observable: suppressive effect on the protease activity at 20 µM

compound	data value
O=c1c(O)cc([C@H]2Oc3cc(O)cc(O)c3C[C@H]2O)cc2c([C@H]3Oc4cc(O)cc(O)c4C[C@H]3O)cc(O)c(O)c12	considerably inhibited
S=C=NCc1ccccc1 [BITC, benzyl isothiocyanate]	considerably inhibited
O=c1c(O)c(-c2cc(O)c(O)c(O)c2)oc2cc(O)cc(O)c12	considerably inhibited

----------
system name: SARS-CoV-2 M^pro (MBP-tagged main protease) (Severe acute respiratory syndrome coronavirus 2, UniProt P0DTD1)
observable: pIC50
When answering, recall that pIC50 equals minus log10 of the concentration in mol/L, and write that number alone.

Q: For Oc1cc(O)cc(/C=C/c2ccc(O)c(O)c2)c1 [piceatannol] , what is its reported pIC50?
A: 4.86

Q: Now this one: S=C=NCCc1ccccc1 [PEITC, phenethyl isothiocyanate]
A: 4.85

Q: Now this one: C=CCN=C=S [AITC, Allyl isothiocyanate]
A: 4.48

Q: Now this one: S=C=NCc1ccccc1 [BITC, benzyl isothiocyanate]
A: 5.35

Q: Now this one: O=c1c(O)cc([C@H]2Oc3cc(O)cc(O)c3C[C@H]2O)cc2c([C@H]3Oc4cc(O)cc(O)c4C[C@H]3O)cc(O)c(O)c12 [theaflavin]
A: 5.21

Q: Now this one: O=c1c(O)c(-c2ccc(O)cc2)oc2c(O)c(O)cc(O)c12 [herbacetin]
A: 4.72
